The measurements presented in this section are drawn from BindingDB's records for doi:10.1016/j.bmc.2021.116161.

procedure_details: Inhibition of IL-15 in mouse 32Dbeta cells assessed as decrease in cell growth in presence of RLI incubated for 30 mins followed by RLI addition and measured after 2.5 days by alamar blue assay
property_measured: IC50

[[record]]
query_smiles = "Cn1c(Cc2nn(CCC3OCCO3)c(=O)c3ccccc23)nnc1SCC(=O)Nc1ccc(Cl)cc1Cl"
property_measured = "IC50"
meas_value = "> 30 µM"

[[record]]
query_smiles = "CN(C)CCCn1nc(Cc2nnc(SCCCCCCCC(=O)Nc3ccc(Cl)cc3Cl)n2C)c2ccccc2c1=O"
property_measured = "IC50"
meas_value = "2.3 µM"


Alright, here's another molecule for you.
Specify reported IC50 for the molecule shown: `Cn1c(Cc2nn(CCC(=O)O)c(=O)c3ccccc23)nnc1SCCCCCCCC(=O)Nc1ccc(Cl)cc1Cl`
> 30 µM
